From: patent US20200254065A1

- System: small intestine
- protocol summary: Intestine weight model in rats
- Format: in vivo, SD rats
- condition info: normal SD rats; injected once at 2 mg/kg peptide dose; 6th day
Square brackets hold non-standard residues; d marks the D form. Ends that are not written are not given here. Nle = CCCC[C@H](N)C(=O)O
Field: Avg. small intestine weight (gr). Provide a value for each of the substances that follow.
Numbers only, in gr.

// worked examples, Avg. small intestine weight (gr) included
substance	recorded value
MAL-FMS-V4 (HGEGSFSDE[Nle]NTILDLLAARDFINWLIQTKITD-NH2; also: MAL-FMS conjugate, place not given here)	7.0
PEG30-NRF-V4 (HGEGSFSDE[Nle]NTILDLLAARDFINWLIQTKITD-NH2; also: PEG30-NRF conjugate, place not given here)	4.0
PEG30-MeOF-V4 (HGEGSFSDE[Nle]NTILDLLAARDFINWLIQTKITD-NH2; also: PEG30-MeOF conjugate, place not given here)	7.0

From here, focus on the item given below.
Recorded Avg. small intestine weight (gr) for PEG30-Fmoc-V4 (HGEGSFSDE[Nle]NTILDLLAARDFINWLIQTKITD-NH2; also: PEG30-Fmoc conjugate, place not given here) , please?
7.0
